Activity: recorded values
target: Baculoviral IAP repeat-containing protein 2 (Homo sapiens); experiment: Induction of cIAP1 degradation in human MCF7 cells at 0.1 uM measured after 18 hrs by western blot analysis; type: cell-based
Answer format: numeric, % implied, no suffix.

### Prompt For the molecule CN[C@@H](C)C(=O)N[C@H](C(=O)N1Cc2cc(OCCCCCCCCNC(=O)C3CCN(c4ccc5c(c4)C(=O)N(C4CCC(=O)NC4=O)C5=O)CC3)ccc2C[C@H]1C(=O)N[C@@H]1CCCc2ccccc21)C(C)(C)C (some centres undefined) , report Activity.
### Response 96

### Prompt Give recorded Activity. CN[C@@H](C)C(=O)N[C@H](C(=O)N1Cc2cc(OCCCCCNC(=O)CNc3ccc4c(c3)C(=O)N(C3CCC(=O)NC3=O)C4=O)ccc2C[C@H]1C(=O)N[C@@H]1CCCc2ccccc21)C(C)(C)C (some centres undefined)
### Response 91

### Prompt Note down Activity recorded for CN[C@@H](C)C(=O)N[C@H](C(=O)N1Cc2cc(O)ccc2C[C@H]1C(=O)N[C@@H]1CCCc2ccccc21)C(C)(C)C
### Response 93

### Prompt Give me measured Activity, please, for this molecule: CN[C@@H](C)C(=O)N[C@H](C(=O)N1Cc2cc(OCCCCCNc3cccc4c3C(=O)N(C3CCC(=O)NC3=O)C4=O)ccc2C[C@H]1C(=O)N[C@@H]1CCCc2ccccc21)C(C)(C)C (some centres undefined)
### Response 94
